Molecular target: HLA-A*0202 (human)
Test: inhibition of 125I probe peptide binding to purified HLA
Details: remark: other sources report otherwise
assay-metric: IC50 (nM)

>  <binder>
VLAKELKFVTL [Peptide 63.0142 … (PAP.30)]

>  <assay-metric>
IC50

>  <result-value>
8.1

$$$$

[P] LLARAASLSV [Peptide 63.0031 … (PAP.7.V10)]
[Q] LLFFWLDRSV [Peptide 1097.09 … (PAP.21)]
[R] LLARAASLSL [Peptide 20.0203 … (PAP.7)]
[S] FLFLLFFWV [Peptide 60.0203 … (PAP.18.V9)]
Query: Rank order required: IC50, descending. As an answer, provide the labels arranged in the order called for.
Result: S, P, R, Q

Every entry's value here was drawn from patent US20040037843A1.
